# SYSTEM: various mutants of kinase EGFR (BaF3 cell lines stably transfected with kinase) (Homo sapiens)
# Construct: other: BaF3 cells stably transfected with EGFR Δ19Del; MTS, 48 h; other: BaF3 cell line stably transfected with EGFR Δ19Del
# Sequence (P00533 with tags, fused parts or gaps DEL746-750): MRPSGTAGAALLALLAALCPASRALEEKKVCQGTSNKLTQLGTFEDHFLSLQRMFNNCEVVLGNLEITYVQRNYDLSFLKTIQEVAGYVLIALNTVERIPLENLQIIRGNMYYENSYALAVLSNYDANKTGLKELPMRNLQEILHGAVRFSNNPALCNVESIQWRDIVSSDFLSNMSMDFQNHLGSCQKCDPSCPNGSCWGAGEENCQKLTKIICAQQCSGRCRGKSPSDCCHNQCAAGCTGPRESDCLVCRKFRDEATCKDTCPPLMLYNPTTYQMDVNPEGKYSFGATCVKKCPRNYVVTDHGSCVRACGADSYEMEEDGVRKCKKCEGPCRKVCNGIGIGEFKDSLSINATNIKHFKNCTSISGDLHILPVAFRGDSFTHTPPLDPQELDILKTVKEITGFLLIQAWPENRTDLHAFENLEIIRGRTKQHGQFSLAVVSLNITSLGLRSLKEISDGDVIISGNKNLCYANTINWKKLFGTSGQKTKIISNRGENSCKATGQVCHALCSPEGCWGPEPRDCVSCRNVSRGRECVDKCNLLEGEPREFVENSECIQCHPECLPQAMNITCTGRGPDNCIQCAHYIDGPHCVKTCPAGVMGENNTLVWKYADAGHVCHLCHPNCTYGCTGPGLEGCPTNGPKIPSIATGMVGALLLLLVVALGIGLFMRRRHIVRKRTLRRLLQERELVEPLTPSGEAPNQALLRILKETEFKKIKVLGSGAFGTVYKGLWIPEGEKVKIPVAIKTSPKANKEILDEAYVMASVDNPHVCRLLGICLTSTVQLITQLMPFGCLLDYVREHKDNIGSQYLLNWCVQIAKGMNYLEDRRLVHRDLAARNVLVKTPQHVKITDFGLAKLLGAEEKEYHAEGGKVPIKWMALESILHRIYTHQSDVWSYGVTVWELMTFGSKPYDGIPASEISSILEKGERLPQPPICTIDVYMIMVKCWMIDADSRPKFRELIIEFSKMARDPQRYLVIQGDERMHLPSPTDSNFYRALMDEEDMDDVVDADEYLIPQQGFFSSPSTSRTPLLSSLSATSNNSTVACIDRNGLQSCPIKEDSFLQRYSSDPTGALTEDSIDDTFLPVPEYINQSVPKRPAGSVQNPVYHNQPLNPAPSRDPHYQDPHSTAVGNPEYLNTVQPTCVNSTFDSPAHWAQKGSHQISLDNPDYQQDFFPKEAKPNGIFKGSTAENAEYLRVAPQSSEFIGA
# ASSAY TEXT: Growth inhibitory activity of compounds on BaF3 cell lines stably transfected with kinase (MTS, 48 h)
# Type: cell-based
# APPLIED CONDITIONS: BaF3 cells stably transfected with EGFR Δ19Del, read-out: IC50, growth inhibition, Δ19Del
Recorded IC50, one value per entry.

Known IC50 results, listed for orientation:
MOLECULAR STRING: C=Cc1cc(Nc2ncc(C(F)(F)F)c(Nc3ccc4nccnc4c3N(C)S(C)(=O)=O)n2)c(OC(F)(F)F)cc1N1CCC(N2CCN(C)CC2)CC1
IC50: 0.05 to 0.5 µM
--
MOLECULAR STRING: CCc1cc(Nc2ncc(Br)c(Nc3ccc4nccnc4c3N(CC)S(C)(=O)=O)n2)c(OC(F)(F)F)cc1N1CCC(N2CCN(C)CC2)CC1
IC50: 0.05 to 0.5 µM
--
MOLECULAR STRING: COc1nc(N2CCC(N3CCN(C)CC3)CC2)ccc1Nc1ncc(Cl)c(Nc2ccc3nccnc3c2N(C2CC2)S(C)(=O)=O)n1
IC50: 0.05 to 0.5 µM
--
MOLECULAR STRING: CCc1cc(Nc2ncc(F)c(Nc3ccc4nccnc4c3N(C)S(C)(=O)=O)n2)c(OC)nc1N1CCC(N2CCN(C)CC2)CC1
IC50: ≤ 0.05 µM
--
MOLECULAR STRING: COc1cc(N2CCC(N3CCN(C)CC3)CC2)c(C(C)C)cc1Nc1ncc(Cl)c(Nc2ccc3nccnc3c2N(C)S(C)(=O)=O)n1
IC50: 0.05 to 0.5 µM
--
MOLECULAR STRING: CCc1cc(Nc2ncc(F)c(Nc3ccc4nccnc4c3N(C)S(=O)(=O)C3CC3)n2)c(OC)cc1N1CCC(N2CCN(C)CC2)CC1
IC50: ≤ 0.05 µM
--
MOLECULAR STRING: CCc1cc(Nc2ncc(F)c(Nc3ccc4nccnc4c3N(C)S(=O)(=O)C3CC3)n2)c(OC)cc1N1CCC(N(C)C)CC1
IC50: ≤ 0.05 µM
--
MOLECULAR STRING: COc1cc(N2CCOCC2)ccc1Nc1ncc(Br)c(Nc2ccc3nccnc3c2N(C)S(C)(=O)=O)n1
IC50: 0.05 to 0.5 µM

Query: Fill in the blank: the reported IC50 of Cc1ccc(Nc2ncc(Br)c(Nc3ccc4nccnc4c3N(C)S(C)(=O)=O)n2)cn1 is ____.
Response: ≤ 0.05 µM

Query: Item CCc1cc(Nc2ncc(Br)c(Nc3ccc4nccnc4c3N(C)S(=O)(=O)CC)n2)c(OC(F)(F)F)cc1N1CCC(N2CCN(C)CC2)CC1 has what recorded IC50?
Response: 0.05 to 0.5 µM

Query: Given the compound COc1nc(N2CCC(N3CCN(C)CC3)CC2)ccc1Nc1ncc(C(F)(F)F)c(Nc2ccc3nccnc3c2N(C)S(C)(=O)=O)n1 , what is its reported IC50?
Response: 0.05 to 0.5 µM

Query: Suppose we examine the compound COc1cc(N2CCC(N(C)C)CC2)c(C)cc1Nc1ncc(Cl)c(Nc2ccc3nccnc3c2N(C)S(=O)(=O)C(F)(F)F)n1 ; what IC50 value has been reported?
Response: 0.5 to 2.5 µM

Values from patent US20230310428A1
